# tgt: human mAChR M4 (Homo sapiens)
# Construct: expressed in transfected cells; host or cells: CHO-K1 (American Type Culture Collection), stably expressing hM4 and Gqi5
# Sequence (P08173 whole entry): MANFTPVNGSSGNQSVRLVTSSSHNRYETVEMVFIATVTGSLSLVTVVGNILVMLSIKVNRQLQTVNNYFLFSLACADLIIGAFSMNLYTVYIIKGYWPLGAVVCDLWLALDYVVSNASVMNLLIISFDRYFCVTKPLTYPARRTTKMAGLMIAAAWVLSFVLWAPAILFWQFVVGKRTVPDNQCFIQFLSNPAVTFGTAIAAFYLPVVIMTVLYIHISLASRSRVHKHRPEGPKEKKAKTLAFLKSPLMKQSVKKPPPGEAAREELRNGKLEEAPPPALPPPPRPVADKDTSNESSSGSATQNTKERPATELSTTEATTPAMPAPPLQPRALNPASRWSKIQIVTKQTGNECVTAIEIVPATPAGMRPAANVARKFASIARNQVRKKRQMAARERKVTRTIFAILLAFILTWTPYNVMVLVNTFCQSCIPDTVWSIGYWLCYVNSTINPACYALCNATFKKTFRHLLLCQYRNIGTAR
# runDescription: mAChR M4 cell-based functional assay: calcium mobilization (Fluo-4, FDSS), potentiation of EC20 acetylcholine response in hM4-Gqi5 CHO-K1 cells
# conditionNotes: CHO-K1, % ACh maximum at 30 μM; human M4
propertyName: Emax at 30 µM
Note: state the figure and append the unit.

Examples from the recorded data:
[[record]]
smilesstructure = "COCc1cc(=O)n2nc(N3CCc4ncc(-c5cnccc5C)cc4C3)c(C)c(C)c2n1"
observedvalue = "85%"

[[record]]
smilesstructure = "Cc1ccc(-c2cnc3c(c2)CN(c2nn4c(=O)c(Br)cnc4c(C)c2C)CC3)cn1"
observedvalue = "83%"

[[record]]
smilesstructure = "Cc1cc2nccc(=O)n2nc1N1CCc2ncc(-c3cccc(Cl)c3C)cc2C1"
observedvalue = "78%"

[[record]]
smilesstructure = "Cc1cc2nccc(=O)n2nc1N1CCc2ncc(-c3c(C)ccnc3C)cc2C1"
observedvalue = "39%"

[[record]]
smilesstructure = "Cc1cc2nccc(=O)n2nc1N1CCc2ncc(-c3cnc(F)c(Cl)c3)cc2C1"
observedvalue = "49%"


Please give Emax at 30 µM for each item listed below.
1. Cc1cc2nccc(=O)n2nc1N1CCc2ncc(-c3sc(C(=O)NC4CC4)cc3C)cc2C1
2. Cc1cc(Nc2cnc3c(c2)CN(c2nn4c(=O)ccnc4cc2C)CC3)c(F)cn1

Output line:
80%
94%

Please give Emax at 30 µM for each item listed below.
1. Cc1cc2nc(C)c(F)c(=O)n2nc1N1CCc2ncc(C(F)(F)F)cc2C1
2. Cc1ccc(-c2cnc3c(c2)CN(c2nn4c(=O)ccnc4c(C)c2C2CC2)CC3)cn1
3. COc1cc(Nc2cnc3c(c2)CN(c2nn4c(=O)ccnc4cc2C)CC3)ccn1
4. Cc1cc2nc(C)c(Cl)c(=O)n2nc1N1CCc2ncc(N3CCCn4nccc43)cc2C1
5. Cc1c(N2CCc3ncc(-c4ccnn4C4COC4)cc3C2)nn2c(=O)ccnc2c1C
6. Cc1c(N2CCc3ncc(-c4cnn(-c5ccccn5)c4)cc3C2)nn2c(=O)ccnc2c1C

Output line:
1: 73%; 2: 67%; 3: 100%; 4: 88%; 5: 75%; 6: 67%

Please give Emax at 30 µM for each item listed below.
1. Cc1cc2nccc(=O)n2nc1N1CCc2ncc(N3CCc4ccccc43)cc2C1
2. CCc1ccccc1-c1cnc2c(c1)CN(c1nn3c(=O)cc(C)nc3cc1C)CC2
3. Cc1cc2nccc(=O)n2nc1N1CCc2ncc(-c3ccc(F)c(Cl)c3)cc2C1

Output line:
95%
57%
99%
